Data origin: BindingDB's records for doi:10.1007/s00044-005-0131-1

EXPERIMENTAL TARGET: Sigma non-opioid intracellular receptor 1 (Cavia porcellus)
Sequence (Q60492 whole entry): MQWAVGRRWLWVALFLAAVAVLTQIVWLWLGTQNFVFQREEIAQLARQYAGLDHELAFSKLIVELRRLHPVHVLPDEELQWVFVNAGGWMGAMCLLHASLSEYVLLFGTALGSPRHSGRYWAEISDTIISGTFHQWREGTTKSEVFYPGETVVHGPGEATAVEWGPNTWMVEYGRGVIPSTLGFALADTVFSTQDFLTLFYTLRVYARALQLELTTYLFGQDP
RUN DESCRIPTION: Binding Assay
pKi: −log10 of the molar value.
VALUE TYPE: pKi

STRUCTURE AS SMILES: CCCc1ccc2c(c1)sc(=O)n2CCN1C[C@]2(C)CCC[C@]2(C)C1
EXPERIMENTAL TARGET: Sigma non-opioid intracellular receptor 1 (Cavia porcellus)
ENDPOINT VALUE: < 6.00
